Tested on: OzTrac-MSL10
Experiment: OzTrac-MSL10 FRET osmosensor expressed in yeast cells, response to osmolytes
Type: cell-based, Arabidopsis thaliana
Settings: hyper-osmotic stress; yeast cells; NaCl at 1M
Description: Fusion proteins comprising the mechanisensitive channel small conductance-like 10 (AtMSL10) were constructed, potentially creating an osmosensor. […] This t9AFP-AtMSL10-t7TFPt9 protein is named as OzTrac-MSL10. […] Upon treatment of 1 M NaCl, which induces hyper-osmotic stress, AtMSL10 will undergo a conformational change into the closed state which causes the FRET pairs to come closer, resulting in a higher FRET. The OzTrac-MSL10 FRET sensor can detect a range of osmolarity concentration changes. […]
observed.property: FRET response to osmolyte

INSERT INTO measurements (compound, result) VALUES
  ('OCC(O)CO', 'increased the FRET'),
  ('[Cl-].[K+] [KCl, potassium chloride]', 'increased the FRET'),
  ('OC[C@@H](O)[C@@H](O)[C@H](O)[C@@H](O)CO', 'increased the FRET');
